Biological target: Plasmepsin II (Plasmodium falciparum)
Assay: Inhibition constant against plasmepsin-2 of Plasmodium falciparum 10 min using 3 uM of DABCYL-Glu-Arg-Nle-Phe-Le u-Ser-Phe-Pro-EDANS as substrate
# Ki annotations
Express your answer in nM, writing the number without its unit.

CN1CCN(CCC(=O)NNC(=O)[C@H](OC/C=C/Br)[C@H](O)[C@@H](O)[C@@H](OC/C=C/Br)C(=O)N[C@H]2c3ccccc3C[C@H]2O)CC1	586

Moving on to another compound below.
## Task Recall the reported Ki of CC(=O)NNC(=O)[C@H](OC/C=C/Br)[C@H](O)[C@@H](O)[C@@H](OC/C=C/Br)C(=O)N[C@H]1c2ccccc2C[C@H]1O on Plasmepsin II (Plasmodium falciparum) and write it down.
## Result 359

* * *

Biological target: Plasmepsin I (Plasmodium falciparum, UniProt P39898)
Sequence (P39898 whole entry): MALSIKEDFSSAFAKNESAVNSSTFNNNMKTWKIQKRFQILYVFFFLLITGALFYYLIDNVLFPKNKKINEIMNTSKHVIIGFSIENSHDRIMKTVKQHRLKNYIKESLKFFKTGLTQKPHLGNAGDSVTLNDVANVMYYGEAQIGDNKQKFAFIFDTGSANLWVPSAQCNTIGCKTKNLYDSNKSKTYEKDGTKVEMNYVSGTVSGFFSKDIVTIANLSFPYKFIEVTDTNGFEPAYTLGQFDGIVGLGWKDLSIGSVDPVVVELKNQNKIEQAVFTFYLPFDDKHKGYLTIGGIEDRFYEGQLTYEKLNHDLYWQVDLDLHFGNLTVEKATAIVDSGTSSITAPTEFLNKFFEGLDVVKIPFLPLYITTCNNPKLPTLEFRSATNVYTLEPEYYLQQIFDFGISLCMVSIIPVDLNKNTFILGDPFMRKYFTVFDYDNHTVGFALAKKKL
Assay: Inhibition constant against plasmepsin-1 of Plasmodium falciparum, 10 min using 3 uM of DABCYL-Glu-Arg-Nle-Phe-Le u-Ser-Phe-Pro-EDANS as substrate
Recorded endpoint: pKi
Convention used: pKi is expressed as -log10 of the molar concentration.

Consider the worked cases shown below.
CN1CCN(CCC(=O)NNC(=O)[C@H](OC/C=C/Br)[C@H](O)[C@@H](O)[C@@H](OC/C=C/Br)C(=O)N[C@H]2c3ccccc3C[C@H]2O)CC1	5.96
O=C(CCCc1ccccc1)NNC(=O)[C@H](OC/C=C/Br)[C@H](O)[C@@H](O)[C@@H](OC/C=C/Br)C(=O)N[C@H]1c2ccccc2C[C@H]1O	7.96
O=C(Cc1ccccc1)NNC(=O)[C@H](OC/C=C/Br)[C@H](O)[C@@H](O)[C@@H](OC/C=C/Br)C(=O)N[C@H]1c2ccccc2C[C@H]1O	7.51
O=C(CCc1c[nH]c2ccccc12)NNC(=O)[C@H](OC/C=C/Br)[C@H](O)[C@@H](O)[C@@H](OC/C=C/Br)C(=O)N[C@H]1c2ccccc2C[C@H]1O	7.72
O=C(N[C@H]1c2ccccc2C[C@H]1O)[C@H](OC/C=C/Br)[C@H](O)[C@@H](O)[C@@H](OC/C=C/Br)c1nnc(CCCc2ccccc2)o1	5.80

Moving on to another compound below.
## Task Respond only with pKi recorded for CC(=O)NNC(=O)[C@H](OC/C=C/Br)[C@H](O)[C@@H](O)[C@@H](OC/C=C/Br)C(=O)N[C@H]1c2ccccc2C[C@H]1O
## Result 6.16

* * *

Biological target: Plasmepsin II (Plasmodium falciparum, UniProt P46925)
Sequence (P46925 whole entry): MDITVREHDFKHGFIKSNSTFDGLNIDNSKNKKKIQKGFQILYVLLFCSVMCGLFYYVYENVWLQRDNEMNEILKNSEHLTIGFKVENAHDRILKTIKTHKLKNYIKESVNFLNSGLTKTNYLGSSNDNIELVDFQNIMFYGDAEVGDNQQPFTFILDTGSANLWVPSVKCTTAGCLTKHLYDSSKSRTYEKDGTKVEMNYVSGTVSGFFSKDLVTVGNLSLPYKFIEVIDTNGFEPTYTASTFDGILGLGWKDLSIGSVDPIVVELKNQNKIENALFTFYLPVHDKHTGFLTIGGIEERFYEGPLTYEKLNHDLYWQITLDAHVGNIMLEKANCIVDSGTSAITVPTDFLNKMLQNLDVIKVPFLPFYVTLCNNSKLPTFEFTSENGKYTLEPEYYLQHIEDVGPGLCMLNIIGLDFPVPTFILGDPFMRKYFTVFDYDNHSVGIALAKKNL
# pKi annotations
Convention used: pKi is expressed as -log10 of the molar concentration.

Consider the worked cases shown below.
O=C(CCc1c[nH]c2ccccc12)NNC(=O)[C@H](OC/C=C/Br)[C@H](O)[C@@H](O)[C@@H](OC/C=C/Br)C(=O)N[C@H]1c2ccccc2C[C@H]1O	8.22
C=CCO[C@@H](C(=O)NNC(=O)CCc1ccccc1)[C@H](O)[C@@H](O)[C@@H](OCC=C)C(=O)N[C@H]1c2ccccc2C[C@H]1O	6.79
O=C(N[C@H]1c2ccccc2C[C@H]1O)[C@H](OC/C=C/Br)[C@H](O)[C@@H](O)[C@@H](OC/C=C/Br)c1nnc(-c2ccccc2)o1	5.47
O=C(NNC(=O)[C@H](OC/C=C/Br)[C@H](O)[C@@H](O)[C@@H](OC/C=C/Br)C(=O)N[C@H]1c2ccccc2C[C@H]1O)c1ccccc1	6.77

Moving on to another molecule below.
## Task Recall the reported pKi of O=C(CCc1ccccc1)NNC(=O)[C@H](OC/C=C/c1ccc2c(c1)OCO2)[C@H](O)[C@@H](O)[C@@H](OC/C=C/c1ccc2c(c1)OCO2)C(=O)N[C@H]1c2ccccc2C[C@H]1O on Plasmepsin II (Plasmodium falciparum, UniProt P46925) and write it down.
## Result 7.96
